Provenance of the data: the PolyMetriX glass transition set

endpoint_label: glass transition temperature (°C)
Numbers only; they are read as °C.

compound	reported_measurement
*c1ccc2c(c1)C(=O)N(c1cc(C(F)(F)F)c(N3C(=O)c4ccc(C(*)(C(F)(F)F)C(F)(F)F)cc4C3=O)cc1C(F)(F)F)C2=O (repeat unit)	365.00
*Oc1cccc(C(=O)c2ccc(Oc3ccc4c(c3)C(=O)N(c3cccc(N5C(=O)c6ccc(*)cc6C5=O)c3)C4=O)cc2)c1 (repeat unit)	239.00
*c1ccc2c(c1)C(=O)N(c1cccc(Oc3cccc(N4C(=O)c5cccc(*)c5C4=O)c3)c1)C2=O (repeat unit)	245.00
*Oc1ccc(C(c2ccc(Oc3cccc4c3C(=O)N(CCCCCCCCN3C(=O)c5cccc(*)c5C3=O)C4=O)cc2)(C(F)(F)F)C(F)(F)F)cc1 (repeat unit)	135.00
*CC(N1C(=O)c2ccccc2C1=O)n1c(=O)c2cc3c(=O)n(*)c(=O)c3cc2c1=O (repeat unit)	190.00
*c1ccc2c(c1)C(=O)N(c1ccc(-c3ccc(N4C(=O)c5ccc(C(*)(C(F)(F)F)C(F)(F)F)cc5C4=O)cc3Br)c(Br)c1)C2=O (repeat unit)	329.00

Please list glass transition temperature recorded for the compound *c1cccc(Oc2ccc(P(=O)(c3ccccc3)c3ccc(Oc4ccc(-n5c(=O)c6cc7c(=O)n(*)c(=O)c7cc6c5=O)cc4)cc3)cc2)c1 (repeat unit) 254.00

Please list glass transition temperature recorded for the compound *Oc1ccc(C(c2ccc(Oc3ccc4c(c3)C(=O)N(c3ccc(Cc5ccc(N6C(=O)c7ccc(*)cc7C6=O)cc5)cc3)C4=O)cc2)(C(F)(F)F)C(F)(F)F)cc1 (repeat unit) 227.00

Please list glass transition temperature recorded for the compound *C(=O)Oc1ccc2ccccc2c1-c1c(OC(=O)c2ccc3c(c2)C(=O)N(c2ccc(Oc4ccc(N5C(=O)c6ccc(*)cc6C5=O)cc4)cc2)C3=O)ccc2ccccc12 (repeat unit) 257.00

Please list glass transition temperature recorded for the compound *c1ccc2c(c1)C(=O)N(c1ccc(OCC(F)(F)C(F)(F)C(F)(F)C(F)(F)C(F)(F)C(F)(F)F)c(N3C(=O)c4ccc(C(*)(C(F)(F)F)C(F)(F)F)cc4C3=O)c1)C2=O (repeat unit) 228.00

Please list glass transition temperature recorded for the compound *c1ccc2c(c1)C(=O)N(c1ccc(-c3ccc(N4C(=O)c5ccc(C(*)(C(F)(F)F)C(F)(F)F)cc5C4=O)cc3-c3ccc(C(F)(F)F)cc3)c(-c3ccc(C(F)(F)F)cc3)c1)C2=O (repeat unit) 283.00

Please list glass transition temperature recorded for the compound *Sc1cccc2c1C(=O)N(c1ccc(N3C(=O)c4cccc(*)c4C3=O)cc1)C2=O (repeat unit) 330.00

Please list glass transition temperature recorded for the compound *C(=O)c1ccc2c(c1)C(=O)N(c1cc(N3C(=O)c4ccc(*)cc4C3=O)ccc1OCC(F)(F)C(F)(F)C(F)(F)F)C2=O (repeat unit) 262.00

Please list glass transition temperature recorded for the compound *C(=O)c1ccc2c(c1)C(=O)N(c1cc(N3C(=O)c4ccc(*)cc4C3=O)ccc1OCC(F)(F)C(F)(F)C(F)(F)C(F)(F)C(F)(F)C(F)(F)C(F)(F)F)C2=O (repeat unit) 223.00

Please list glass transition temperature recorded for the compound *Oc1cccc(S(=O)(=O)c2ccc(Oc3cccc4c3C(=O)N(c3ccc(Oc5cccc(Oc6ccc(N7C(=O)c8cccc(*)c8C7=O)cc6)c5)cc3)C4=O)cc2)c1 (repeat unit) 216.00
